Test system: Kasumi-1 (acute myeloid leukemia M2 type, AML-M2)
testSummary: MTT cell growth inhibition, Kasumi-1 leukemia cells, 72 h
Assay type: cell-based
testSettings: Homo sapiens; Kasumi-1, 72 h; read-out: IC50
Procedure: The standard sample of tanshinone I (TA) and the 2-alkyl- or 2-aromatic-substituted tanshinone I derivatives of the present invention are sufficiently dissolved in dimethylsulfoxide to produce a stock solution of 10 mg/mL, which is refrigerated at 4° C. and stored in dark, and is diluted with cell culture medium to a desired concentration prior to experimentation. Obtaining 6000 well-growing leukemia cells and inoculating them into wells of a 96-well cell culture plate. […]
readoutKind: IC50 (µg/mL)
# unit: µg/mL | format: bare number

Illustrative cases are given below, each with its answer.
| molecule | IC50, µg/mL |
| --- | --- |
| Cc1oc2c(c1C)C(=O)C(=O)c1c-2ccc2c(C)cccc12 | 9.66 |
| Cc1c(-c2ccc(C(=O)O)cc2)oc2c1C(=O)C(=O)c1c-2ccc2c(C)cccc12 | 3.85 |

Entry Cc1c(-c2ccc(OCC(O)CO)cc2)oc2c1C(=O)C(=O)c1c-2ccc2c(C)cccc12 (stereo not shown) : reported IC50 = ?
0.97

====

Test system: K562/adr (drug-resistant, chronic myeloid leukemia, CML)
testSummary: MTT cell growth inhibition, K562/adr leukemia cells, 72 h
Assay type: cell-based
testSettings: Homo sapiens, K562/Adr, read-out: IC90
Parameter: IC90. Scope: all listed entries.
# unit: mg/L | format: bare number

Illustrative cases are given below, each with its answer.
| compound | IC90 / mg/L |
| --- | --- |
| Cc1oc2c(c1C)C(=O)C(=O)c1c-2ccc2c(C)cccc12 | 28.7 |
| Cc1c(-c2ccc(OCC(O)CO)cc2)oc2c1C(=O)C(=O)c1c-2ccc2c(C)cccc12 (stereo not shown) | 7.61 |

We next turn to a different compound, shown below.
Could you share what IC90 was measured for `Cc1c(-c2ccc(C(=O)O)cc2)oc2c1C(=O)C(=O)c1c-2ccc2c(C)cccc12` , tested on K562/adr (drug-resistant, chronic myeloid leukemia, CML)?
3.6

====

Test system: K562/adr (drug-resistant, chronic myeloid leukemia, CML)
testSummary: MTT cell growth inhibition, K562/adr leukemia cells, 72 h
Type: cell-based
testSettings: Homo sapiens, K562/Adr, read-out: IC50
Parameter: IC50. Scope: all listed entries.
# unit: µg/mL | format: bare number

| compound | IC50 / µg/mL |
| --- | --- |
| Cc1c(-c2ccc(C(=O)O)cc2)oc2c1C(=O)C(=O)c1c-2ccc2c(C)cccc12 | 1.08 |

Could you share what IC50 was measured for Cc1c(-c2ccc(OCC(O)CO)cc2)oc2c1C(=O)C(=O)c1c-2ccc2c(C)cccc12 (stereo not shown) , tested on K562/adr (drug-resistant, chronic myeloid leukemia, CML)?
1.36

Could you share what IC50 was measured for `Cc1c(-c2ccccc2Cl)oc2c1C(=O)C(=O)c1c-2ccc2c(C)cccc12` , tested on K562/adr (drug-resistant, chronic myeloid leukemia, CML)?
15.5

Could you share what IC50 was measured for `Cc1oc2c(c1C)C(=O)C(=O)c1c-2ccc2c(C)cccc12` , tested on K562/adr (drug-resistant, chronic myeloid leukemia, CML)?
8.84

====

Test system: NB4 (acute promyelocytic leukemia, AML)
testSummary: MTT cell growth inhibition, NB4 leukemia cells, 72 h
Assay type: cell-based
testSettings: NB4, 72 h; read-out: IC90
readoutKind: IC90 (µg/mL)
# unit: µg/mL | format: bare number

| compound | systemName | quantitativeReadout |
| --- | --- | --- |
| Cc1c(-c2ccc(OCC(O)CO)cc2)oc2c1C(=O)C(=O)c1c-2ccc2c(C)cccc12 (stereo not shown) | NB4 (acute promyelocytic leukemia, AML) | 3.22 |
| Cc1c(-c2ccc(C(=O)O)cc2)oc2c1C(=O)C(=O)c1c-2ccc2c(C)cccc12 | NB4 (acute promyelocytic leukemia, AML) | 1 |
| Cc1oc2c(c1C)C(=O)C(=O)c1c-2ccc2c(C)cccc12 | NB4 (acute promyelocytic leukemia, AML) | 3.64 |

We next turn to a different compound, shown below.
Entry `Cc1c(-c2ccccc2Cl)oc2c1C(=O)C(=O)c1c-2ccc2c(C)cccc12` : reported IC90 = ?
11.2
